test system: DeltatarO mutant; experiment: S. aureus survival, RN4220 and DeltatarO strains – OD600, teichoic acid synthesis inhibitors, primary screen (AID 463173); details: S. aureus RN4220 wild type/DeltatarO growth, OD600, 18 h, stronger effect = lower value, screened at 18.75 µg/mL (by protocol)
The campaign covered roughly 52,000 compounds. About 4,300 (8.3%) were called active. The sample as a whole holds a higher share of actives than the screen did.
Sorting guide: entries reporting survival beneath 90% go in the Y pile, the rest go in the N pile.

Hello, is survival of the following compound strictly smaller than 90%? `COc1ccccc1N1CCN(c2ncnc3c2c(-c2ccccc2)cn3-c2cccc(C)c2)CC1`
Y

Dear reviewer, please state whether `CCCCOc1cccc(C(=O)Nc2cccc3ccc(C)nc23)c1` has survival strictly beneath 90%.
Y

Determine if `O=C(CN1C(=O)COc2ccc(S(=O)(=O)N3CCCC3)cc21)N1CCN(c2ccc(F)cc2)CC1` shows survival strictly lower than 90%.
Y

I'd appreciate it if you could check whether `CCCCSCCCNC(=O)CN1C(=O)c2cccnc2Oc2ccc(Cl)cc21` has survival smaller than 90%.
N
